# Tested on: P388 leukemia ip, CD2F1 mice, survival T/C
# assay.procedure: NCI In Vivo Anticancer Drug Screen. Data for tumor model P388 Leukemia (intraperitoneal) in CD2F1 (CDF1) mice
# experimental.conditions: endpoint: median survival time; dose: 50.0 mg/kg/injection; schedule: Q01DX009 (ip); vehicle: Klucel (hydroxypropylcellulose) (HPC); higher = longer survival
Toxic doses and inconclusive results are not listed.
measurement.kind: T/C

CC1CN(/N=C/c2ccc([N+](=O)[O-])o2)C(=O)O1 (stereo not drawn) | 103 % of control
CC(C)CCCC(C)C1CCC2C3CCC4CC(OS(C)(=O)=O)CCC4(C)C3CCC12C (stereo not drawn) | 96 % of control
Nc1cccc(SC2CC(=O)N(c3ccc(Cl)cc3C(=O)c3ccccc3)C2=O)c1 (stereo not drawn) | 105 % of control
NS(=O)(=O)c1ccc(NC(=O)CCCCl)cc1 | 100 % of control
Cc1ncc(C)c2c([N+](=O)[O-])cccc12 | 106 % of control
Cn1c(CO)cnc1-c1ccccc1 | 99 % of control
OC(c1ccncc1)(c1ccc(Cl)cc1)c1cccs1 (stereo not drawn) | 101 % of control
c1cc(C2CO2)ccc1Oc1ccc(C2CO2)cc1 (stereo not drawn) | 103 % of control
Nc1ccccc1N1C(c2ccccc2)=CC(=O)N2CCN=C21 | 90 % of control
COC(=O)c1ccc(CNC(=O)c2ccccc2C(=O)NCC2(CBr)OCCO2)cc1 | 113 % of control
COc1ccc2c(c1)CCC1=C2CCP1(C)=S (stereo not drawn) | 106 % of control
O=C(O)c1ccc(NC(=O)C2C(=O)C(=O)N(c3ccc(C(=O)O)cc3)C2=O)cc1 (stereo not drawn) | 104 % of control
O=C(CI)Nc1cccc(C(=O)O)c1O | 99 % of control
Cc1ccc(N2C(=O)CC3(CCCCC3)C2=O)c(C)c1 | 105 % of control
CN(C)Cc1c(/C=C/C2=[N+](C)c3ccccc3C2(C)C)[nH]c2ccccc12 | 110 % of control
COc1ccc(C2CC(c3ccccc3)=Nc3ccccc3S2)cc1OC (stereo not drawn) | 102 % of control
COc1cc(Cc2nccc3cc(OC)c(OC)cc23)c(C(C)=O)cc1OC | 113 % of control
O=P(Oc1ccccc1)(Oc1ccccc1)C(Nc1ccc(C(F)(F)F)cc1)c1ccccc1 (stereo not drawn) | 99 % of control
